Target chain: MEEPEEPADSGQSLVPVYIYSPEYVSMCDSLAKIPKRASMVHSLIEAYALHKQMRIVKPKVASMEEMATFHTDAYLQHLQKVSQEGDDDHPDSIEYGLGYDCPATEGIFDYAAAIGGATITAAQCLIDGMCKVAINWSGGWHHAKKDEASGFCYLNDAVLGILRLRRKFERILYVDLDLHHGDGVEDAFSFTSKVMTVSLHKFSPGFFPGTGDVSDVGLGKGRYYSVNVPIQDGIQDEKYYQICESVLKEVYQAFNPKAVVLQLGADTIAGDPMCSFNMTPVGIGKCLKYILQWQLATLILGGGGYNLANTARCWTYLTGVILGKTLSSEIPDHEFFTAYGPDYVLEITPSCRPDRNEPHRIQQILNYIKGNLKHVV
pIC50: −log10 of the molar value.
Test Readout: pIC50

Previously resolved entries follow.
O=C(NO)c1cc(F)c2c(c1)C[C@H]1CCC3(CCCCC3)CN1C2 (single isomer, unassigned): 4.00 to 5.00
O=C(NO)c1ccc(CN2CCc3c([nH]c4ccccc34)C2)c(F)c1: 6.00 to 7.00
O=C(NO)c1cc(F)c2c(c1)CCN([C@H]1CCC13CCCCC3)C2 (single isomer, unassigned): 4.00 to 5.00
O=C(NO)c1cc(F)c2c(c1)CN1CCC[C@@H]1C2 (single isomer, unassigned): 5.00 to 6.00
O=C(NO)c1ccc(CN2CCCC3(CCCCC3)C2)c(F)c1: 5.00 to 6.00

Below is a list of molecules. For each, state its recorded pIC50.
1. Cn1c2c(c3ccccc31)CCN(Cc1ccc(C(=O)NO)cc1F)C2
2. O=C(NO)c1cc(F)c2c(c1)CCN1CCC[C@@H]21 (single isomer, unassigned)
3. O=C(NO)c1cc(F)c2c(c1)CN(CC1COC1)CC2
4. O=C(NO)c1cc(F)c2c(c1)CN(CC13CC4CC(CC(C4)C1)C3)C2
5. O=C(NO)c1ccc(CN2CC3CCC2CO3)c(F)c1 (stereo not shown)
6. O=C(NO)c1ccc(CN2C3CCC2CC(=NO)C3)c(F)c1

## Output
6.00 to 7.00
5.00 to 6.00
5.00 to 6.00
5.00 to 6.00
6.00 to 7.00
6.00 to 7.00

* * *

- Target Or Test System: Full length Human HDAC6 (Homo sapiens, UniProt Q9UBN7)
- Sequence (Q9UBN7 whole entry): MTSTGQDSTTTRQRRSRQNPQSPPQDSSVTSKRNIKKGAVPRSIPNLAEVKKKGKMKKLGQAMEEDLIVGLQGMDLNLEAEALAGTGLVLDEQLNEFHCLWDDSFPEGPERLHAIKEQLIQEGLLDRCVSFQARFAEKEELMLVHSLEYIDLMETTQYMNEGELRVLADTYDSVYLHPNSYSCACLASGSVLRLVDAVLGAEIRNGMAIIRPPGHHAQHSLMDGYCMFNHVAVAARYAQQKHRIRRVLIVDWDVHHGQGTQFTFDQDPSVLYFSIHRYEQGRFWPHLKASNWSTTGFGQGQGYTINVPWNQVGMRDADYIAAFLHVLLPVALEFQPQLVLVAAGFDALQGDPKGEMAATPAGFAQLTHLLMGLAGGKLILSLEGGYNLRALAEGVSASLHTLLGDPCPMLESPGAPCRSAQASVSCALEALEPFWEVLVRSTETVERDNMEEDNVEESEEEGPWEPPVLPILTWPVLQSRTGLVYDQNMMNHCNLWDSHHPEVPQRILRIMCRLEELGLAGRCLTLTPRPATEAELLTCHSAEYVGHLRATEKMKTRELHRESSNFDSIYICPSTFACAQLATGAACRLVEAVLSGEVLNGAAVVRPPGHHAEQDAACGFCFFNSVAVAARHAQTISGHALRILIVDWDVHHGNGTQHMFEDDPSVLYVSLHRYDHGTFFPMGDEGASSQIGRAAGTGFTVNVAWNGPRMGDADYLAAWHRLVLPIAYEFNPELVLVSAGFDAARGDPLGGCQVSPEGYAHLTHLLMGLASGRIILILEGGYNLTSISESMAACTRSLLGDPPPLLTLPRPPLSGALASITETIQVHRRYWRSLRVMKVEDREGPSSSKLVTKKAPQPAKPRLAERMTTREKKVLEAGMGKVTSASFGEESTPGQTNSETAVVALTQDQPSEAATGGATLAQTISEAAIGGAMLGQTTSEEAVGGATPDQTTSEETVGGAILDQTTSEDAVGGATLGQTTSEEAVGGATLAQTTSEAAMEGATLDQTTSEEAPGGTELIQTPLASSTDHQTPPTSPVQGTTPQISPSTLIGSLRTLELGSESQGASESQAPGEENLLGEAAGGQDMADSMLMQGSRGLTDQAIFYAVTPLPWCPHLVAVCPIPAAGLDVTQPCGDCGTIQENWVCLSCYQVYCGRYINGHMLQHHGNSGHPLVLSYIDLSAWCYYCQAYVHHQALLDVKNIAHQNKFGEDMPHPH
- Condition Summary: ratio of HDAC8 IC50/HDAC6 IC50; Table 1, range class
Test Readout: Selectivity (6 v 8) (fold)

O=C(NO)c1cc(F)c2c(c1)CN(CC13CC4CC(CC(C4)C1)C3)C2 [compound 33]: IV (IV: >100-1000)
O=C(NO)c1cc(F)c2c(c1)CN(CC13CC4CC(CC(C4)O1)C3)C2 [compound 13]: IV (IV: >100-1000)

* * *

So I've got IC50 readings for Full length Human HDAC6 (Homo sapiens, UniProt Q9UBN7), take a look.

Previously resolved entries follow.
O=C1CC2CCC(C1)N2Cc1ccc(C(=O)NO)cc1F [compound 63]: 1 to 100 nM
O=C(NO)c1cc(F)c2c(c1)CCN(CC13CC4CC(CC(C4)C1)C3)C2 [compound 34]: 1 to 100 nM

Below is a list of molecules. For each, state its recorded IC50.
1. O=C(NO)c1cc(F)c2c(c1)CCN([C@H]1CCC13CCCCC3)C2 (single isomer, unassigned) [compound 9]
2. O=C(NO)c1ccc(CN2C[C@H]3CC[C@@H]2CO3)c(F)c1 (single isomer, unassigned) [compound 173]
3. O=C(NO)c1ccc(CN2CC3(COC3)C2)c(F)c1 [compound 72]
4. C[C@@H]1CC[C@H]2c3c(F)cc(C(=O)NO)cc3CCN12 (single isomer, unassigned) [compound 158]
5. CN1CC2CCC(C1)N2Cc1ccc(C(=O)NO)cc1F [compound 56]
6. CC1(C)C[C@@H]2Cc3c(F)cc(C(=O)NO)cc3CN2C1 (single isomer, unassigned) [compound 127]
7. O=C(NO)c1cc(F)c2c(c1)CCN([C@@H]1CCC13CCCCC3)C2 (single isomer, unassigned) [compound 8]

## Output
1: 1 to 100 nM; 2: 1 to 100 nM; 3: 1 to 100 nM; 4: 1 to 100 nM; 5: 1 to 100 nM; 6: 1 to 100 nM; 7: 100 to 1000 nM

Below is a list of molecules. For each, state its recorded IC50.
1. Cc1ccn2c1-c1c(F)cc(C(=O)NO)cc1CC2 [compound 155]
2. O=C1CC2CCCC(C1)N2Cc1ccc(C(=O)NO)cc1F [compound 62]
3. Cn1c2c(c3ccccc31)CCN(Cc1ccc(C(=O)NO)cc1F)C2 [compound 45]
4. O=C(NO)c1ccc(CN2CC3CCC(C2)O3)c(F)c1 [compound 53]
5. O=C(NO)c1ccc2c(c1)Cn1cccc1-2 [compound 166]

## Output
1: 1 to 100 nM; 2: 1 to 100 nM; 3: 1 to 100 nM; 4: 1 to 100 nM; 5: 100 to 1000 nM
